target: UniProt P29274; experiment: Displacement of [3H]ZM241385 from human A2AR expressed in mouse Ltk cells at 1 uM by scintillation counting relative to control
Calls of active or inactive are those of the source. The calls are words filed in the database; no cut-off is given here.
assay.endpoint: Activity

CCCN(CCc1ccc(NC(=O)CCC(N)C(=O)NCCCCC(NC(=O)CCC(=O)NCCOCCOCCNC(=O)CCC(=O)NCCOCCOCCNC(=O)CCC(=O)NCCOCCOCCNC(=O)C(CCCCNC(C)=O)NC(C)=O)C(N)=O)cc1)C1CCc2c(O)cccc2C1 (stereo not drawn)
Active
CCCN(CCc1ccc(NC(=O)CCC(N)C(=O)NCCCCC(NC(=O)CCC(=O)NCCOCCOCCNC(=O)C(CCCCNC(C)=O)NC(C)=O)C(N)=O)cc1)C1CCc2c(O)cccc2C1 (stereo not drawn)
Active
CCCN(CCc1ccc(NC(=O)CCC(N)C(=O)NCCCCC(NC(=O)CCC(=O)NCCOCCOCCNC(=O)CCC(=O)NCCOCCOCCNC(=O)CCC(=O)NCCOCCOCCNC(=O)C(CCCCNC(=O)C(N)CCCCNC(=O)COc2ccc(-c3nc4c([nH]3)c(=O)n(CCC)c(=O)n4CCC)cc2)NC(C)=O)C(N)=O)cc1)C1CCc2c(O)cccc2C1 (stereo not drawn)
Active

---

experiment: Displacement of [3H]YM09151-2 from D2R (long isoform) dimer in lamb striatum membrane high affinity macroscopic equilibrium dissociation constant by scintillation counting; format: cell membranes, Ovis aries
pKi: −log10 of the molar value.
assay.endpoint: pKi

Check out these entries, answers already filled in.
CCCN(CCc1ccc(NC(=O)CCC(N)C(=O)NCCCCC(NC(=O)CCC(=O)NCCOCCOCCNC(=O)CCC(=O)NCCOCCOCCNC(=O)CCC(=O)NCCOCCOCCNC(=O)C(CCCCNC(C)=O)NC(C)=O)C(N)=O)cc1)C1CCc2c(O)cccc2C1 (centres undefined)
7.89
CCCN(CCc1ccc(NC(=O)CCC(N)C(=O)NCCCCC(NC(=O)CCC(=O)NCCOCCOCCNC(=O)CCC(=O)NCCOCCOCCNC(=O)CCC(=O)NCCOCCOCCNC(=O)C(CCCCNC(=O)C(N)CCCCNC(=O)COc2ccc(-c3nc4c([nH]3)c(=O)n(CCC)c(=O)n4CCC)cc2)NC(C)=O)C(N)=O)cc1)C1CCc2c(O)cccc2C1 (centres undefined)
8.74

P: CCCN(CCc1ccc(NC(=O)CCC(N)C(=O)NCCCCC(NC(=O)CCC(=O)NCCOCCOCCNC(=O)C(CCCCNC(C)=O)NC(C)=O)C(N)=O)cc1)C1CCc2c(O)cccc2C1 (centres undefined)
Q: CCCN(CCc1ccc(NC(=O)CCC(N)C(=O)NCCCCC(NC(=O)CCC(=O)NCCOCCOCCNC(=O)C(CCCCNC(=O)C(N)CCCCNC(=O)COc2ccc(-c3nc4c([nH]3)c(=O)n(CCC)c(=O)n4CCC)cc2)NC(C)=O)C(N)=O)cc1)C1CCc2c(O)cccc2C1 (centres undefined)
Parameter check: reported pKi is higher for which label, P or Q ? Reply briefly: the label of your chosen item.
Q
(Q: 8.96, P: 7.96)

---

target: Adenosine A2A receptor (Homo sapiens) (UniProt P29274); experiment: Displacement of [3H]ZM241385 from human A2AR expressed in mouse Ltk cells at 1 uM by scintillation counting relative to control
Sequence (P29274 whole entry, looked up): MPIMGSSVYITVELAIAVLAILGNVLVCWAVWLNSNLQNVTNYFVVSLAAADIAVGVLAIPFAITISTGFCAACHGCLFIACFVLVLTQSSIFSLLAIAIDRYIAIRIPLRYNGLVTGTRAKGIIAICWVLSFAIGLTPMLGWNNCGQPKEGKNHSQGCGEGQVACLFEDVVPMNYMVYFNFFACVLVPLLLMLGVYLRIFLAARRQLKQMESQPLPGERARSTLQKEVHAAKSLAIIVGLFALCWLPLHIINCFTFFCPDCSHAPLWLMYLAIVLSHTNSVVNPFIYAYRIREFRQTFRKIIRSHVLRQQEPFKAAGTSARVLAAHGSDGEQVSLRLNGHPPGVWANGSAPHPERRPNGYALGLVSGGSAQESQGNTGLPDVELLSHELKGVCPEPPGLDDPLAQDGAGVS
Calls of active or inactive are those of the source. The rule behind the calls is not given here.
assay.endpoint: Activity

CCCN(CCc1ccc(NC(=O)CCC(N)C(=O)NCCCCC(NC(=O)CCC(=O)NCCOCCOCCNC(=O)C(CCCCNC(=O)C(N)CCCCNC(=O)COc2ccc(-c3nc4c([nH]3)c(=O)n(CCC)c(=O)n4CCC)cc2)NC(C)=O)C(N)=O)cc1)C1CCc2c(O)cccc2C1 (stereo not drawn)
Active
CCCn1c(=O)c2[nH]c(-c3ccc(OCC(=O)NCCCCC(N)C(=O)NCCCCC(NC(C)=O)C(=O)NCCOCCOCCNC(=O)CCC(=O)NC(CCCCNC(C)=O)C(N)=O)cc3)nc2n(CCC)c1=O (stereo not drawn)
Active
CCCn1c(=O)c2[nH]c(-c3ccc(OCC(=O)NCCCCC(N)C(=O)NCCCCC(NC(C)=O)C(=O)NCCOCCOCCNC(=O)CCC(=O)NCCOCCOCCNC(=O)CCC(=O)NCCOCCOCCNC(=O)CCC(=O)NC(CCCCNC(C)=O)C(N)=O)cc3)nc2n(CCC)c1=O (stereo not drawn)
Active

---

assay: Displacement of [3H]ZM241385 from A2aR dimer in lamb striatum membrane assessed as high affinity macroscopic equilibrium dissociation constant by scintillation counting; assay type: cell membranes, Ovis aries
assay.endpoint: pKi
Please keep in mind that pKi is minus log10 of the molar concentration; only the number is needed.

CCCN(CCc1ccc(NC(=O)CCC(N)C(=O)NCCCCC(NC(=O)CCC(=O)NCCOCCOCCNC(=O)CCC(=O)NCCOCCOCCNC(=O)C(CCCCNC(=O)C(N)CCCCNC(=O)COc2ccc(-c3nc4c([nH]3)c(=O)n(CCC)c(=O)n4CCC)cc2)NC(C)=O)C(N)=O)cc1)C1CCc2c(O)cccc2C1 (configuration not stated)
7.10

Please find the next molecule below.
Input CCCN(CCc1ccc(NC(=O)CCC(N)C(=O)NCCCCC(NC(=O)CCC(=O)NCCOCCOCCNC(=O)C(CCCCNC(=O)C(N)CCCCNC(=O)COc2ccc(-c3nc4c([nH]3)c(=O)n(CCC)c(=O)n4CCC)cc2)NC(C)=O)C(N)=O)cc1)C1CCc2c(O)cccc2C1 (configuration not stated) . Output pKi: 7.23

---

test: Displacement of [3H]ZM241385 from A2aR dimer in lamb striatum membrane assessed as high affinity macroscopic equilibrium dissociation constant by scintillation counting; type: cell membranes, Ovis aries
assay.endpoint: Ki (nM)

Check out these entries, answers already filled in.
CCCN(CCc1ccc(NC(=O)CCC(N)C(=O)NCCCCC(NC(=O)CCC(=O)NCCOCCOCCNC(=O)CCC(=O)NCCOCCOCCNC(=O)CCC(=O)NCCOCCOCCNC(=O)C(CCCCNC(=O)C(N)CCCCNC(=O)COc2ccc(-c3nc4c([nH]3)c(=O)n(CCC)c(=O)n4CCC)cc2)NC(C)=O)C(N)=O)cc1)C1CCc2c(O)cccc2C1 (stereo unspecified)
50
CCCn1c(=O)c2[nH]c(-c3ccc(OCC(=O)NCCCCC(N)C(=O)NCCCCC(NC(C)=O)C(=O)NCCOCCOCCNC(=O)CCC(=O)NCCOCCOCCNC(=O)CCC(=O)NC(CCCCNC(C)=O)C(N)=O)cc3)nc2n(CCC)c1=O (stereo unspecified)
268

I: CCCn1c(=O)c2[nH]c(-c3ccc(OCC(=O)NCCCCC(N)C(=O)NCCCCC(NC(C)=O)C(=O)NCCOCCOCCNC(=O)CCC(=O)NCCOCCOCCNC(=O)CCC(=O)NCCOCCOCCNC(=O)CCC(=O)NC(CCCCNC(C)=O)C(N)=O)cc3)nc2n(CCC)c1=O (stereo unspecified)
II: CCCn1c(=O)c2[nH]c(-c3ccc(OCC(=O)NCCCCC(N)C(=O)NCCCCC(NC(C)=O)C(=O)NCCOCCOCCNC(=O)CCC(=O)NC(CCCCNC(C)=O)C(N)=O)cc3)nc2n(CCC)c1=O (stereo unspecified)
III: CCCN(CCc1ccc(NC(=O)CCC(N)C(=O)NCCCCC(NC(=O)C(CCCCNC(=O)C(N)CCCCNC(=O)COc2ccc(-c3nc4c([nH]3)c(=O)n(CCC)c(=O)n4CCC)cc2)NC(C)=O)C(N)=O)cc1)C1CCc2c(O)cccc2C1 (stereo unspecified)
IV: CCCn1c(=O)c2[nH]c(-c3ccc(OCC(=O)NCCCCC(N)C(=O)NCCCCC(NC(C)=O)C(=O)NC(CCCCNC(C)=O)C(N)=O)cc3)nc2n(CCC)c1=O (stereo unspecified)
Could you please order the items by Ki, going from the lowest number to the highest? Provide the labels, sequenced as the question asks.
III, IV, II, I
(III: 55 nM, IV: 160 nM, II: 246 nM, I: 364 nM)

---

experiment: Displacement of [3H]YM09151-2 from D2R (long isoform) dimer in lamb striatum membrane low affinity macroscopic equilibrium dissociation constant by scintillation counting; type: cell membranes, Ovis aries
pKi: −log10 of the molar value.
assay.endpoint: pKi

Check out these entries, answers already filled in.
CCCN(CCc1ccc(NC(=O)CCC(N)C(=O)NCCCCC(NC(=O)CCC(=O)NCCOCCOCCNC(=O)CCC(=O)NCCOCCOCCNC(=O)C(CCCCNC(C)=O)NC(C)=O)C(N)=O)cc1)C1CCc2c(O)cccc2C1 (stereo not drawn)
4.92
CCCN(CCc1ccc(NC(=O)CCC(N)C(=O)NCCCCC(NC(=O)CCC(=O)NCCOCCOCCNC(=O)CCC(=O)NCCOCCOCCNC(=O)CCC(=O)NCCOCCOCCNC(=O)C(CCCCNC(=O)C(N)CCCCNC(=O)COc2ccc(-c3nc4c([nH]3)c(=O)n(CCC)c(=O)n4CCC)cc2)NC(C)=O)C(N)=O)cc1)C1CCc2c(O)cccc2C1 (stereo not drawn)
6.30
CCCN(CCc1ccc(NC(=O)CCC(N)C(=O)NCCCCC(NC(=O)C(CCCCNC(=O)C(N)CCCCNC(=O)COc2ccc(-c3nc4c([nH]3)c(=O)n(CCC)c(=O)n4CCC)cc2)NC(C)=O)C(N)=O)cc1)C1CCc2c(O)cccc2C1 (stereo not drawn)
5.05

a: CCCN(CCc1ccc(NC(=O)CCC(N)C(=O)NCCCCC(NC(=O)C(CCCCNC(C)=O)NC(C)=O)C(N)=O)cc1)C1CCc2c(O)cccc2C1 (stereo not drawn)
b: CCCN(CCc1ccc(NC(=O)CCC(N)C(=O)NCCCCC(NC(=O)CCC(=O)NCCOCCOCCNC(=O)C(CCCCNC(C)=O)NC(C)=O)C(N)=O)cc1)C1CCc2c(O)cccc2C1 (stereo not drawn)
Returns the identifier with the smallest measured pKi among a and b . Reply briefly: the label of your chosen item.
b
